Entries annotated with measured CC50
- assay-explanation: Cytotoxicity against African green monkey Vero cells by MTS assay
- Type: cell-based
- conditions: chlorocebus sabaeus

Entry `C=C(C)[C@@]12OC3(c4ccccc4)O[C@@]4([C@H]([C@H]1O)[C@@H]1O[C@]1(CO)[C@@H](O)[C@@]1(O)[C@H]4C[C@H](C)[C@@H]1OC(=O)c1ccccc1)[C@](C)(O3)[C@@H]2OC(=O)c1ccccc1` — recorded CC50 = 49 µM

Entry `CC(=O)OCn1c(=O)c2c(c3ccccc31)OC(C)(C)[C@H]1CC[C@@](C)(O)[C@H](Cl)[C@H]21` — recorded CC50 = > 239 µM

Could you now consider this next compound?
Entry `Cn1c2c(c(=O)c3ccccc31)[C@H]1[C@@H](Cl)[C@](C)(O)CC[C@@H]1C(C)(C)O2` — recorded CC50 = > 277 µM

These entries and their values trace back to ChEMBL document CHEMBL4330151.
